experiment: Biodistribution of radiopharmaceuticals in rats with tourniquet on left hind leg; format: in vivo, Sprague-Dawley rats; details: Tibia; tourniquet 5 minute
Overview of recorded Dose per Gram in Left Leg as a Percentage of Dose per Gram in Right Leg for various compounds

- compound: "O=P(O)(O)CN(CCN(CP(=O)(O)O)CP(=O)(O)O)CP(=O)(O)O.[Sm+3] [Sm-EDTMP]"
  obs value: "79%"
- compound: "O=P(O)(O)CN1CCN(CP(=O)(O)O)CCN(CP(=O)(O)O)CCN(CP(=O)(O)O)CC1.[Sm+3] [Sm-DOTMP]"
  obs value: "61%"
- compound: "O=P(O)(O)CN(CCN(CP(=O)(O)O)CP(=O)(O)O)CP(=O)(O)O.[Ho+3] [Ho-EDTMP]"
  obs value: "84%"

Continue with the next compound.
Prompt: I would be grateful if you could share the reported Dose per Gram in Left Leg as a Percentage of Dose per Gram in Right Leg for O=P(O)(O)CN1CCN(CP(=O)(O)O)CCN(CP(=O)(O)O)CCN(CP(=O)(O)O)CC1.[Ho+3] [Ho-DOTMP] .
Completion: 45%

----------
Overview of recorded Dose per Gram in Left Leg as a Percentage of Dose per Gram in Right Leg for various compounds
test: Biodistribution of radiopharmaceuticals in rats with tourniquet on left hind leg; format: in vivo, Sprague-Dawley rats; conditions: Tibia; tourniquet 20 minute
Field: value (include unit after the number)

Worked examples follow.
- compound: "O=P(O)(O)CN1CCN(CP(=O)(O)O)CCN(CP(=O)(O)O)CCN(CP(=O)(O)O)CC1.[Ho+3]"
  obs value: "21%"
- compound: "O=P(O)(O)CN(CCN(CP(=O)(O)O)CP(=O)(O)O)CP(=O)(O)O.[Sm+3]"
  obs value: "36%"

Prompt: I would be grateful if you could share the reported Dose per Gram in Left Leg as a Percentage of Dose per Gram in Right Leg for O=P(O)(O)CN(CCN(CP(=O)(O)O)CP(=O)(O)O)CP(=O)(O)O.[Ho+3] .
Completion: 23%

Prompt: I would be grateful if you could share the reported Dose per Gram in Left Leg as a Percentage of Dose per Gram in Right Leg for O=P(O)(O)CN1CCN(CP(=O)(O)O)CCN(CP(=O)(O)O)CCN(CP(=O)(O)O)CC1.[Sm+3] .
Completion: 25%

----------
experiment: Biodistribution of radiopharmaceuticals in rats with tourniquet on left hind leg; type: in vivo, Sprague-Dawley rats; settings: Tibia; tourniquet 10 minute
Overview of recorded Dose per Gram in Left Leg as a Percentage of Dose per Gram in Right Leg for various compounds
Record the value in %, omitting the unit from your answer.

Worked examples follow.
- compound: "O=P(O)(O)CN(CCN(CP(=O)(O)O)CP(=O)(O)O)CP(=O)(O)O.[Ho+3] [Ho-EDTMP]"
  obs value: 50
- compound: "O=P(O)(O)CN1CCN(CP(=O)(O)O)CCN(CP(=O)(O)O)CCN(CP(=O)(O)O)CC1.[Sm+3] [Sm-DOTMP]"
  obs value: 50

Prompt: I would be grateful if you could share the reported Dose per Gram in Left Leg as a Percentage of Dose per Gram in Right Leg for O=P(O)(O)CN1CCN(CP(=O)(O)O)CCN(CP(=O)(O)O)CCN(CP(=O)(O)O)CC1.[Ho+3] [Ho-DOTMP] .
Completion: 45

Prompt: I would be grateful if you could share the reported Dose per Gram in Left Leg as a Percentage of Dose per Gram in Right Leg for O=P(O)(O)CN(CCN(CP(=O)(O)O)CP(=O)(O)O)CP(=O)(O)O.[Sm+3] [Sm-EDTMP] .
Completion: 41

----------
Overview of recorded Tibial Percentage Dose per Gram for various molecules
test: Biodistribution of radiopharmaceuticals in rats with tourniquet on left hind leg; type: in vivo, Sprague-Dawley rats; conditions: Right Tibia (unprotected); tourniquet 10 minute; i.v. tail vein; sacrifice after two hours
Record the value in Percentage Dose per Gram, omitting the unit from your answer.

Worked examples follow.
- molecule: "O=P(O)(O)CN(CCN(CP(=O)(O)O)CP(=O)(O)O)CP(=O)(O)O.[Sm+3] [Sm-EDTMP]"
  unit abbrev: "Percentage Dose per Gram"
  Tibial Percentage Dose per Gram: 6.17
- molecule: "O=P(O)(O)CN1CCN(CP(=O)(O)O)CCN(CP(=O)(O)O)CCN(CP(=O)(O)O)CC1.[Ho+3] [Ho-DOTMP]"
  unit abbrev: "Percentage Dose per Gram"
  Tibial Percentage Dose per Gram: 7.52
- molecule: "O=P(O)(O)CN1CCN(CP(=O)(O)O)CCN(CP(=O)(O)O)CCN(CP(=O)(O)O)CC1.[Sm+3] [Sm-DOTMP]"
  unit abbrev: "Percentage Dose per Gram"
  Tibial Percentage Dose per Gram: 6.79

Prompt: I would be grateful if you could share the reported Tibial Percentage Dose per Gram for O=P(O)(O)CN(CCN(CP(=O)(O)O)CP(=O)(O)O)CP(=O)(O)O.[Ho+3] [Ho-EDTMP] .
Completion: 6.95

----------
experiment: Biodistribution of radiopharmaceuticals in rats with tourniquet on left hind leg; type: in vivo, Sprague-Dawley rats; conditions: Left Tibia (protected by tourniquet); tourniquet 10 minute; i.v. tail vein; sacrifice after two hours
attribute measured: Tibial Percentage Dose per Gram (Percentage Dose per Gram)
Record the value in Percentage Dose per Gram, omitting the unit from your answer.

Worked examples follow.
- molecule: "O=P(O)(O)CN(CCN(CP(=O)(O)O)CP(=O)(O)O)CP(=O)(O)O.[Ho+3] [Ho-EDTMP]"
  unit abbrev: "Percentage Dose per Gram"
  obs value: 3.49
- molecule: "O=P(O)(O)CN1CCN(CP(=O)(O)O)CCN(CP(=O)(O)O)CCN(CP(=O)(O)O)CC1.[Sm+3] [Sm-DOTMP]"
  unit abbrev: "Percentage Dose per Gram"
  obs value: 3.38
- molecule: "O=P(O)(O)CN1CCN(CP(=O)(O)O)CCN(CP(=O)(O)O)CCN(CP(=O)(O)O)CC1.[Ho+3] [Ho-DOTMP]"
  unit abbrev: "Percentage Dose per Gram"
  obs value: 3.41

Prompt: I would be grateful if you could share the reported Tibial Percentage Dose per Gram for O=P(O)(O)CN(CCN(CP(=O)(O)O)CP(=O)(O)O)CP(=O)(O)O.[Sm+3] [Sm-EDTMP] .
Completion: 2.56

----------
assay: Biodistribution of radiopharmaceuticals in rats with tourniquet on left hind leg; format: in vivo, Sprague-Dawley rats; details: Right Tibia (unprotected); tourniquet 5 minute; i.v. tail vein; sacrifice after two hours
attribute measured: Tibial Percentage Dose per Gram (Percentage Dose per Gram)
Record the value in Percentage Dose per Gram, omitting the unit from your answer.

Worked examples follow.
- compound: "O=P(O)(O)CN(CCN(CP(=O)(O)O)CP(=O)(O)O)CP(=O)(O)O.[Ho+3]"
  Tibial Percentage Dose per Gram [Percentage Dose per Gram]: 1.60
- compound: "O=P(O)(O)CN1CCN(CP(=O)(O)O)CCN(CP(=O)(O)O)CCN(CP(=O)(O)O)CC1.[Sm+3]"
  Tibial Percentage Dose per Gram [Percentage Dose per Gram]: 7.91
- compound: "O=P(O)(O)CN(CCN(CP(=O)(O)O)CP(=O)(O)O)CP(=O)(O)O.[Sm+3]"
  Tibial Percentage Dose per Gram [Percentage Dose per Gram]: 6.73

Prompt: I would be grateful if you could share the reported Tibial Percentage Dose per Gram for O=P(O)(O)CN1CCN(CP(=O)(O)O)CCN(CP(=O)(O)O)CCN(CP(=O)(O)O)CC1.[Ho+3] .
Completion: 7.06

----------
Overview of recorded Dose per Gram in Left Leg as a Percentage of Dose per Gram in Right Leg for various compounds
assay: Biodistribution of radiopharmaceuticals in rats with tourniquet on left hind leg; type: in vivo, Sprague-Dawley rats; settings: Femur; tourniquet 20 minute
Record the value in %, omitting the unit from your answer.

Worked examples follow.
- compound: "O=P(O)(O)CN1CCN(CP(=O)(O)O)CCN(CP(=O)(O)O)CCN(CP(=O)(O)O)CC1.[Sm+3] [Sm-DOTMP]"
  obs value: 22
- compound: "O=P(O)(O)CN1CCN(CP(=O)(O)O)CCN(CP(=O)(O)O)CCN(CP(=O)(O)O)CC1.[Ho+3] [Ho-DOTMP]"
  obs value: 24
- compound: "O=P(O)(O)CN(CCN(CP(=O)(O)O)CP(=O)(O)O)CP(=O)(O)O.[Sm+3] [Sm-EDTMP]"
  obs value: 38

Continue with the next compound.
Prompt: I would be grateful if you could share the reported Dose per Gram in Left Leg as a Percentage of Dose per Gram in Right Leg for O=P(O)(O)CN(CCN(CP(=O)(O)O)CP(=O)(O)O)CP(=O)(O)O.[Ho+3] [Ho-EDTMP] .
Completion: 54

----------
Overview of recorded Femoral Percentage Dose per Gram for various compounds
assay: Biodistribution of radiopharmaceuticals in rats with tourniquet on left hind leg; type: in vivo, Sprague-Dawley rats; conditions: Right Femur (unprotected); tourniquet 20 minute; i.v. tail vein
Record the value in Percentage Dose per Gram, omitting the unit from your answer.

Prompt: I would be grateful if you could share the reported Femoral Percentage Dose per Gram for O=P(O)(O)CN(CCN(CP(=O)(O)O)CP(=O)(O)O)CP(=O)(O)O.[Ho+3] .
Completion: 4.31

Prompt: I would be grateful if you could share the reported Femoral Percentage Dose per Gram for O=P(O)(O)CN1CCN(CP(=O)(O)O)CCN(CP(=O)(O)O)CCN(CP(=O)(O)O)CC1.[Ho+3] .
Completion: 5.59

Prompt: I would be grateful if you could share the reported Femoral Percentage Dose per Gram for O=P(O)(O)CN1CCN(CP(=O)(O)O)CCN(CP(=O)(O)O)CCN(CP(=O)(O)O)CC1.[Sm+3] .
Completion: 6.46

Prompt: I would be grateful if you could share the reported Femoral Percentage Dose per Gram for O=P(O)(O)CN(CCN(CP(=O)(O)O)CP(=O)(O)O)CP(=O)(O)O.[Sm+3] .
Completion: 5.44
